Data origin, for the record: ChEMBL document CHEMBL1138933

// values below are IC50; system is Sodium-dependent serotonin transporter (Homo sapiens, UniProt P31645)
Sequence (P31645 whole entry): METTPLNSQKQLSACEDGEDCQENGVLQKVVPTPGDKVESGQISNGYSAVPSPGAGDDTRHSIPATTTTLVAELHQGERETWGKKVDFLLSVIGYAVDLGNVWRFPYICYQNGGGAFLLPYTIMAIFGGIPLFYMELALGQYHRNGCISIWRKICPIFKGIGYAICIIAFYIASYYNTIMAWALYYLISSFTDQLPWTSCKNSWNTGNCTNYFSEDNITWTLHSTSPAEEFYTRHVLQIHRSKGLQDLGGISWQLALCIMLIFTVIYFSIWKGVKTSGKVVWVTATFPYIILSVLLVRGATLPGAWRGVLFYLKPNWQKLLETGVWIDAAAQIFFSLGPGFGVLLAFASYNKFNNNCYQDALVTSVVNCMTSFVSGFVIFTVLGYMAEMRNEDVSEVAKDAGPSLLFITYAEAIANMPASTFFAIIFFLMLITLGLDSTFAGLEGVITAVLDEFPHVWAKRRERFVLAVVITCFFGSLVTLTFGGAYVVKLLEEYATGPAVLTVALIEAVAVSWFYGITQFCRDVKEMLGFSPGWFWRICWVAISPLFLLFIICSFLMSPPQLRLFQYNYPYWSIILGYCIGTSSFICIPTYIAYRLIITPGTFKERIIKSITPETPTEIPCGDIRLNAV

# compound, IC50 [nM]
measured = [
    ("NC(=O)c1ccc(F)c2c1C[C@@H](N(CCCc1c[nH]c3ccc(F)cc13)CC1CC1)CO2", 59.7),
    ("CCCN(CCCCc1c[nH]c2ccc(F)cc12)C1COc2c(F)ccc(C(N)=O)c2C1 (racemic)", 217),
    ("NC(=O)c1ccc(F)c2c1C[C@@H](N(CCCc1c[nH]c3ccc(F)cc13)C1CCC1)CO2", 18.7),
    ("CCN(CCc1c[nH]c2ccc(F)cc12)C1COc2c(F)ccc(C(N)=O)c2C1 (racemic)", 883),
    ("NC(=O)c1ccc(F)c2c1CC(N(CCCCc1c[nH]c3ccc(F)cc13)C1CCC1)CO2 (racemic)", 300),
    ("CCN(CCCc1c[nH]c2ccc(F)cc12)[C@H]1COc2c(F)ccc(C(N)=O)c2C1", 42.7),
    ("NC(=O)c1ccc(F)c2c1CC(N(CCCc1c[nH]c3ccc(F)cc13)C1CCC1)CO2 (racemic)", 25.2),
    ("CCCN(CCCc1c[nH]c2ccc(F)cc12)C1COc2c(F)ccc(C(N)=O)c2C1 (racemic)", 128),
    ("CCCN(CCCc1c[nH]c2ccc(F)cc12)[C@@H]1COc2c(F)ccc(C(N)=O)c2C1", 59.9),
]
